From: paper PMC8279409

- target.entity: human mu receptor (Homo sapiens, UniProt P35372)
- Construct: expressed in transfected cells; host or cells: CHO cells stably coexpressing the receptor and chimeric Gαqi5
- Sequence (P35372 whole entry): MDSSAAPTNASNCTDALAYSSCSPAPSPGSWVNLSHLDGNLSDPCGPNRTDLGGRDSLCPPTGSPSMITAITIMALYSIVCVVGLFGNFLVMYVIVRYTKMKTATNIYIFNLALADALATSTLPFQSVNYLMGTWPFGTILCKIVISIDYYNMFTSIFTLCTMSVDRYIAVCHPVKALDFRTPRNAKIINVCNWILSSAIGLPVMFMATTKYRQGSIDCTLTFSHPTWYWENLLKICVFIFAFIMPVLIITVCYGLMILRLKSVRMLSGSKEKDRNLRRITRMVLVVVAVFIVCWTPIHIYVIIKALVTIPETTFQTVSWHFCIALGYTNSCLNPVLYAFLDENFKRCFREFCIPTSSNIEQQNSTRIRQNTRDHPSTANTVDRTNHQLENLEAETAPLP
- protocol: Calcium mobilization, mu opioid receptor
- Format: cell-based
- reported.conditions: Table 1 series; CHO cells coexpressing human mu receptor and Gαqi5, Fluo-4 AM, 37 °C; mean of at least three experiments in duplicate; CL95% in brackets
Where no end group is shown, it is not given here.
Reported mu pEC50 (CL95%) is given for each of the following substances.

{"substance": "YGGFYGARKSARK-NH2 [Compound 14, [Tyr^1,5]N/OFQ(1-13)-NH2]", "mu pEC50 (CL95%)": "6.76 (6.34–7.18)"}
{"substance": "YGGFLGARKSARK-NH2 [Compound 11, [Tyr^1,Leu^5]N/OFQ(1-13)-NH2]", "mu pEC50 (CL95%)": "6.08 (5.95–6.21)"}

* * *

- target.entity: human mu receptor (Homo sapiens)
- Construct: expressed in transfected cells; host or cells: CHO cells stably coexpressing the receptor and chimeric Gαqi5
- protocol: Calcium mobilization, mu opioid receptor
- Type: cell-based
- reported.conditions: read-out: mu Emax ± S.E.M., Table 3 series; percent over the baseline fluorescence; mean ± SEM of at least three experiments in duplicate; SEM
Where a SMILES comes first, the peptide text is derived from it. [ ]: non-standard residue; d: D form. Phe(4-NH2) = Nc1ccc(C[C@H](N)C(=O)O)cc1; 1Nal = N[C@@H](Cc1cccc2ccccc12)C(=O)O; Dmt = Cc1cc(O)cc(C)c1C[C@H](N)C(=O)O; Phg = N[C@H](C(=O)O)c1ccccc1

{"compound": "Cc1cc(O)cc(C)c1C[C@H](NC(=O)[C@H](Cc1ccccc1)NC(=O)CNC(=O)CNC(=O)[C@@H](N)Cc1c(C)cc(O)cc1C)C(=O)NCC(=O)N[C@@H](C)C(=O)N[C@@H](CCCNC(=N)N)C(=O)N[C@@H](CCCCN)C(=O)N[C@@H](CO)C(=O)N[C@@H](C)C(=O)N[C@@H](CCCNC(=N)N)C(=O)N[C@@H](CCCCN)C(N)=O [Compound 35, [Dmt^1,5]N/OFQ(1-13)-NH2] (H-[Dmt]GGF[Dmt]GARKSARK-NH2)", "unit.spec": "%", "Emax": 354}
{"compound": "Cc1cc(O)cc(C)c1C[C@H](N)C(=O)NCC(=O)NCC(=O)N[C@@H](Cc1ccccc1)C(=O)N[C@@H](Cc1cccc2ccccc12)C(=O)NCC(=O)N[C@@H](C)C(=O)N[C@@H](CCCNC(=N)N)C(=O)N[C@@H](CCCCN)C(=O)N[C@@H](CO)C(=O)N[C@@H](C)C(=O)N[C@@H](CCCNC(=N)N)C(=O)N[C@@H](CCCCN)C(N)=O [Compound 33, [Dmt^1,1Nal^5]N/OFQ(1-13)-NH2] (H-[Dmt]GGF[1Nal]GARKSARK-NH2)", "unit.spec": "%", "Emax": 349}
{"compound": "Cc1cc(O)cc(C)c1C[C@H](N)C(=O)NCC(=O)NCC(=O)N[C@@H](Cc1ccccc1)C(=O)N[C@@H](Cc1ccc(O)cc1)C(=O)NCC(=O)N[C@@H](C)C(=O)N[C@@H](CCCNC(=N)N)C(=O)N[C@@H](CCCCN)C(=O)N[C@@H](CO)C(=O)N[C@@H](C)C(=O)N[C@@H](CCCNC(=N)N)C(=O)N[C@@H](CCCCN)C(N)=O [Compound 30, [Dmt^1,Tyr^5]N/OFQ(1-13)-NH2] (H-[Dmt]GGFYGARKSARK-NH2)", "unit.spec": "%", "Emax": 410}
{"compound": "Cc1cc(O)cc(C)c1C[C@H](N)C(=O)NCC(=O)NCC(=O)N[C@@H](Cc1ccccc1)C(=O)N[C@@H](Cc1ccc(N)cc1)C(=O)NCC(=O)N[C@@H](C)C(=O)N[C@@H](CCCNC(=N)N)C(=O)N[C@@H](CCCCN)C(=O)N[C@@H](CO)C(=O)N[C@@H](C)C(=O)N[C@@H](CCCNC(=N)N)C(=O)N[C@@H](CCCCN)C(N)=O [Compound 34, [Dmt^1,(pNH2)Phe^5]N/OFQ(1-13)-NH2] (H-[Dmt]GGF[Phe(4-NH2)]GARKSARK-NH2)", "unit.spec": "%", "Emax": 358}
{"compound": "Cc1cc(O)cc(C)c1C[C@H](N)C(=O)NCC(=O)NCC(=O)N[C@@H](Cc1ccccc1)C(=O)N[C@H](C(=O)NCC(=O)N[C@@H](C)C(=O)N[C@@H](CCCNC(=N)N)C(=O)N[C@@H](CCCCN)C(=O)N[C@@H](CO)C(=O)N[C@@H](C)C(=O)N[C@@H](CCCNC(=N)N)C(=O)N[C@@H](CCCCN)C(N)=O)[C@@H](C)O [Compound 29, [Dmt^1]N/OFQ(1-13)-NH2, reference compound]", "unit.spec": "%", "Emax": 311}
{"compound": "Cc1cc(O)cc(C)c1C[C@H](N)C(=O)NCC(=O)NCC(=O)N[C@@H](Cc1ccccc1)C(=O)N[C@H](C(=O)NCC(=O)N[C@@H](C)C(=O)N[C@@H](CCCNC(=N)N)C(=O)N[C@@H](CCCCN)C(=O)N[C@@H](CO)C(=O)N[C@@H](C)C(=O)N[C@@H](CCCNC(=N)N)C(=O)N[C@@H](CCCCN)C(N)=O)c1ccccc1 [Compound 32, [Dmt^1,Phg^5]N/OFQ(1-13)-NH2] (H-[Dmt]GGF[Phg]GARKSARK-NH2)", "unit.spec": "%", "Emax": 339}

* * *

- target.entity: human mu receptor (Homo sapiens, UniProt P35372)
- Construct: expressed in transfected cells; host or cells: CHO cells stably coexpressing the receptor and chimeric Gαqi5
- protocol: Calcium mobilization, mu opioid receptor
- Format: cell-based
- reported.conditions: Table 2 series; CHO cells coexpressing human mu receptor and Gαqi5, Fluo-4 AM, 37 °C; mean of at least three experiments in duplicate; CL95% in brackets
Where a SMILES comes first, the peptide text is derived from it. [ ]: non-standard residue; d: D form. Phg = N[C@H](C(=O)O)c1ccccc1
recorded.endpoint: mu pEC50 (CL95%)

{"molecule": "C[C@H](NC(=O)CNC(=O)[C@@H](NC(=O)[C@H](Cc1ccccc1)NC(=O)CNC(=O)CNC(=O)[C@@H](N)Cc1ccc(O)cc1)c1ccccc1)C(=O)N[C@@H](CCCNC(=N)N)C(=O)N[C@@H](CCCCN)C(=O)N[C@@H](CO)C(=O)N[C@@H](C)C(=O)N[C@@H](CCCNC(=N)N)C(=O)N[C@@H](CCCCN)C(N)=O [Compound 19, [Tyr^1,Phg^5]N/OFQ(1-13)-NH2] (H-YGGF[Phg]GARKSARK-NH2)", "endpoint.value": "6.81 (6.33–7.29)"}

* * *

- target.entity: human NOP receptor (Homo sapiens)
- Construct: expressed in transfected cells; host or cells: CHO cells stably coexpressing the receptor and chimeric Gαqi5
- Sequence (P41146 whole entry): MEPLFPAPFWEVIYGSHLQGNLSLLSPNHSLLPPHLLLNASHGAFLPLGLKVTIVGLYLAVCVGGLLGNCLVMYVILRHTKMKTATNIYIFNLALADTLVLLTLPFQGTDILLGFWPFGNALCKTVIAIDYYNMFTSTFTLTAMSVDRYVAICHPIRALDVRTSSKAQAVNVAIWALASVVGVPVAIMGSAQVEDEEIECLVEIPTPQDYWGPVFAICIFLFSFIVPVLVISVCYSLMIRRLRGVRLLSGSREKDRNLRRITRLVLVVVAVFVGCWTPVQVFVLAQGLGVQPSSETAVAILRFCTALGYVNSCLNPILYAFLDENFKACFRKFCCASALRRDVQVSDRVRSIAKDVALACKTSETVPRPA
- protocol: Calcium mobilization, NOP receptor
- Format: cell-based
- reported.conditions: Table 1 series; CHO cells coexpressing human NOP and Gαqi5, Fluo-4 AM, FlexStation II, 37 °C; mean of at least three experiments in duplicate; CL95% in brackets
Where no end group is shown, it is not given here.
Reported NOP pEC50 (CL95%) is given for each of the following substances.

{"substance": "YGGFVGARKSARK-NH2 [Compound 5, [Tyr^1,Val^5]N/OFQ(1-13)-NH2]", "NOP pEC50 (CL95%)": "8.70 (8.53–8.87)"}
{"substance": "YGGFK(Ac)GARKSARK-NH2 [Compound 6, [Tyr^1,Lys(Ac)^5]N/OFQ(1-13)-NH2]", "NOP pEC50 (CL95%)": "8.55 (7.88–9.22)"}
{"substance": "YGGFLGARKSARK-NH2 [Compound 11, [Tyr^1,Leu^5]N/OFQ(1-13)-NH2]", "NOP pEC50 (CL95%)": "8.03 (7.46–8.60)"}
{"substance": "YGGFNGARKSARK-NH2 [Compound 4, [Tyr^1,Asn^5]N/OFQ(1-13)-NH2]", "NOP pEC50 (CL95%)": "8.70 (8.26–9.11)"}
{"substance": "YGGFKGARKSARK-NH2 [Compound 8, [Tyr^1,Lys^5]N/OFQ(1-13)-NH2]", "NOP pEC50 (CL95%)": "7.26 (6.74–7.78)"}
{"substance": "YGGFYGARKSARK-NH2 [Compound 14, [Tyr^1,5]N/OFQ(1-13)-NH2]", "NOP pEC50 (CL95%)": "7.07 (6.68–7.46)"}
{"substance": "YGGFTGARKSARK-NH2 [Compound 3, [Tyr^1]N/OFQ(1-13)-NH2, reference compound]", "NOP pEC50 (CL95%)": "9.23 (9.07–9.39)"}
